These data points were gathered from patent US12453722B2.

# Protocol: log P (physical and chemical properties)
# Format: physicochemical
Readout: logP
Numbers only.

Report logP, nothing else, for this compound: CC(C)OC(=O)[C@H](CO)NCc1cc(Cl)c(OCc2cccc(-c3ccccc3)c2Br)cc1OCc1cccnc1.Cl.Cl [Example 1, hydrochloride]
2.4
